- Test system: cell lines from the Cancer Cell Line Encyclopedia (CCLE)
- assay.protocol: High-throughput cell viability assay, CCLE cell line panel (n = 356)
- Assay type: cell-based, human
- applied.conditions: Homo sapiens, EB2, TP53 MUT
pIC50: −log10 of the molar value.
value.kind: pIC50

query: pIC50 for COc1cc2c(cc1OC(C)C)[C@H](c1ccc(Cl)cc1)N(c1ccc(N(C)C[C@H]3CC[C@H](N4CCNC(=O)C4)CC3)cc1)C(=O)C2 ?
result: < 5.10

---

- System: cell lines from the Cancer Cell Line Encyclopedia (CCLE)
- assay.protocol: High-throughput cell viability assay, CCLE cell line panel (n = 356)
- Format: cell-based, human
- applied.conditions: Homo sapiens, 697, TP53 WT
value.kind: IC50 (nM)
Give bare numbers, in nM.

query: Recorded IC50 of COc1cc2c(cc1OC(C)C)[C@H](c1ccc(Cl)cc1)N(c1ccc(N(C)C[C@H]3CC[C@H](N4CCNC(=O)C4)CC3)cc1)C(=O)C2 , please.
result: 1590

---

- Tested on: cell lines from the Cancer Cell Line Encyclopedia (CCLE)
- assay.protocol: High-throughput cell viability assay, CCLE cell line panel (n = 356)
- Format: cell-based, human
- applied.conditions: Homo sapiens, MPP 89, TP53 WT
value.kind: IC50

query: Lab note: need IC50 with cell lines from the Cancer Cell Line Encyclopedia (CCLE) for entry COc1cc2c(cc1OC(C)C)[C@H](c1ccc(Cl)cc1)N(c1ccc(N(C)C[C@H]3CC[C@H](N4CCNC(=O)C4)CC3)cc1)C(=O)C2 , please look it up.
result: > 8 µM

---

- Tested on: cell lines from the Cancer Cell Line Encyclopedia (CCLE)
- assay.protocol: High-throughput cell viability assay, CCLE cell line panel (n = 356)
- Assay type: cell-based, human
- applied.conditions: Homo sapiens, MOG-G-CCM, TP53 MUT
value.kind: IC50

query: Record lookup: for cell lines from the Cancer Cell Line Encyclopedia (CCLE), what IC50 belongs to COc1cc2c(cc1OC(C)C)[C@H](c1ccc(Cl)cc1)N(c1ccc(N(C)C[C@H]3CC[C@H](N4CCNC(=O)C4)CC3)cc1)C(=O)C2 ?
result: > 8 µM

---

- Tested on: cell lines from the Cancer Cell Line Encyclopedia (CCLE)
- assay.protocol: High-throughput cell viability assay, CCLE cell line panel (n = 356)
- Type: cell-based, human
- applied.conditions: Homo sapiens, TE-11, read-out: NVP- CFC218 IC50 (µM), cell line TE-11, oesophagus, TP53 MUT
value.kind: IC50

query: Item COc1cc2c(cc1OC(C)C)[C@H](c1ccc(Cl)cc1)N(c1ccc(N(C)C[C@H]3CC[C@H](N4CCNC(=O)C4)CC3)cc1)C(=O)C2 [NVP-CFC218] has what recorded IC50?
result: > 8 µM

---

- Tested on: cell lines from the Cancer Cell Line Encyclopedia (CCLE)
- assay.protocol: High-throughput cell viability assay, CCLE cell line panel (n = 356)
- Assay type: cell-based, human
- applied.conditions: Homo sapiens, Detroit 562, Detroit 562, TP53 MUT
value.kind: IC50

query: Endpoint output: IC50 of COc1cc2c(cc1OC(C)C)[C@H](c1ccc(Cl)cc1)N(c1ccc(N(C)C[C@H]3CC[C@H](N4CCNC(=O)C4)CC3)cc1)C(=O)C2 . Value?
result: > 8 µM

---

- System: cell lines from the Cancer Cell Line Encyclopedia (CCLE)
- assay.protocol: High-throughput cell viability assay, CCLE cell line panel (n = 356)
- Type: cell-based, human
- applied.conditions: Homo sapiens, PK-45H, TP53 WT
value.kind: IC50

query: What value of IC50 has been reported for the following molecule? COc1cc2c(cc1OC(C)C)[C@H](c1ccc(Cl)cc1)N(c1ccc(N(C)C[C@H]3CC[C@H](N4CCNC(=O)C4)CC3)cc1)C(=O)C2 [NVP-CFC218]
result: > 8 µM
